- measurement-protocol: self-splicing fitness, log relative to wild type (ln ratio); higher = more splicing; Tetrahymena group I intron in knt gene, E. coli kanamycin selection, DiMSum; sequences stand for … in CUCUCU…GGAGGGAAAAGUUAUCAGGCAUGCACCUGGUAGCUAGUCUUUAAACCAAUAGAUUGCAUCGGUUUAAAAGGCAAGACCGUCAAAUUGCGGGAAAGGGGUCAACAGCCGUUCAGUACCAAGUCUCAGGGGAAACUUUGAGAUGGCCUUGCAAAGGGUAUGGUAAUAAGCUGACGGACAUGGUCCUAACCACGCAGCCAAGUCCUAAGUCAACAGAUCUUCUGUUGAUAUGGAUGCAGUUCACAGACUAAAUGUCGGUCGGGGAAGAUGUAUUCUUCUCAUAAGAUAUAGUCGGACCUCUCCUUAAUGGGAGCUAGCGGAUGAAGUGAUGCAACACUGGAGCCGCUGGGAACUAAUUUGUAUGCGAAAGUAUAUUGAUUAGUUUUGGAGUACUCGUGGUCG;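 further: selection with 25 µg/mL kanamycin versus none on LB agar overnight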
- measurement-conditions: 30 °C
Kindly supply the reported self-splicing fitness (ln) values for the records listed here.

Lookup: Sample `ACACAGCAAUAUUACGCGUG` — what was its self-splicing fitness (ln)?
Found: -2.25

Lookup: Same for `CCGAAGCAAUAUUACGAAAG`
Found: -1.21

Lookup: Same for `CAUUAGCAAUAUUACGUAAU`
Found: -2.73

Lookup: Same for `ACCAAGCAAUAUUACGUAGG`
Found: -2.55

Lookup: Same for `ACCUAGCAAUAUUACGGGGG`
Found: -3.84

Lookup: Same for `GCCAAGCAAUAUUACGCCCC`
Found: -1.02

Lookup: Same for `CAGCAGCAAUAUUACGCGUC`
Found: -3.68

Lookup: Same for `CCCCAGCAAUAUUACGUAAC`
Found: -5

Lookup: Same for `AUGUAGCAAUAUUACGGCAU`
Found: -1.88

Lookup: Same for `UUAGAGCAAUAUUACGAAAG`
Found: -2.9

Lookup: Same for `ACAAAGCAAUAUUACGUGUC`
Found: -3.69

Lookup: Same for `AACAAGCAAUAUUACGUUUG`
Found: -2.87

Lookup: Same for `UAUCAGCAAUAUUACGGCAU`
Found: -1.14

Lookup: Same for `AGUGAGCAAUAUUACGACUU`
Found: -1.18

Lookup: Same for `UCUGAGCAAUAUUACGAGGU`
Found: -3.18

Lookup: Same for `ACGGAGCAAUAUUACGCUGA`
Found: -1.48

Lookup: Same for `CCUCAGCAAUAUUACGAGGA`
Found: -2.54

Lookup: Same for `GCAAAGCAAUAUUACGGCUG`
Found: -2.43

Lookup: Same for `ACGGAGCAAUAUUACGGCAA`
Found: -2.98

Lookup: Same for `GGAUAGCAAUAUUACGUACC`
Found: -2.37

Lookup: Same for `AGGGAGCAAUAUUACGGUAG`
Found: -4

Lookup: Same for `AGCCAGCAAUAUUACGCACU`
Found: -0.425

Lookup: Same for `AGCAAGCAAUAUUACGUGCG`
Found: -1.25

Lookup: Same for `AAUGAGCAAUAUUACGGACG`
Found: -2.44

Lookup: Same for `GCUGAGCAAUAUUACGCUUU`
Found: -2.42

Lookup: Same for `GUGGAGCAAUAUUACGCCGU`
Found: 0.631

Lookup: Same for `AAUCAGCAAUAUUACGGCCG`
Found: -0.87

Lookup: Same for `UAUCAGCAAUAUUACGAGAG`
Found: -3.03

Lookup: Same for `AUAGAGCAAUAUUACGUUAA`
Found: -2.32

Lookup: Same for `GUCGAGCAAUAUUACGAUGG`
Found: -3.01

Lookup: Same for `UGGUAGCAAUAUUACGGCCG`
Found: -1.62

Lookup: Same for `CCCCAGCAAUAUUACGAAAC`
Found: -3.12

Lookup: Same for `CAUUAGCAAUAUUACGCGGU`
Found: -2.75

Lookup: Same for `AAUUAGCAAUAUUACGCACU`
Found: -0.0585

----------
- measurement-protocol: self-splicing fitness, log relative to wild type (ln ratio); higher = more splicing; Tetrahymena group I intron in knt gene, E. coli kanamycin selection, DiMSum; sequences stand for … in CUCUCU…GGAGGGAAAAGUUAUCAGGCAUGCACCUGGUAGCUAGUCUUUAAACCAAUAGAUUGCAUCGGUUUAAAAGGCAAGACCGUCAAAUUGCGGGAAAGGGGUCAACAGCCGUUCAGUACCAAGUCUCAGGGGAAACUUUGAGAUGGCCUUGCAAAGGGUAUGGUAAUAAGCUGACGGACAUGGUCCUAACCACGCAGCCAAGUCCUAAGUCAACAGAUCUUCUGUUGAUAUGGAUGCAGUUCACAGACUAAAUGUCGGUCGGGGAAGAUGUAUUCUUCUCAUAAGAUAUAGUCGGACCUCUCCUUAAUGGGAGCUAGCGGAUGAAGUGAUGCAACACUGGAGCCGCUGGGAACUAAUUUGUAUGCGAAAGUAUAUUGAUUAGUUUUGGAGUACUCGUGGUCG
- measurement-conditions: 30 °C
Kindly supply the reported self-splicing fitness (ln) values for the records listed here.
Lab note: jot the number down without any unit.

Lookup: Sample `UGCCAGCAAUAUUACGGAGU` — what was its self-splicing fitness (ln)?
Found: -4.74

Lookup: Same for `UGUUAGCAAUAUUACGGAUU`
Found: -2.53

Lookup: Same for `UGCCAGCAAUAUUACGUGUC`
Found: -3.01

Lookup: Same for `GCUUAGCAAUAUUACGCUUC`
Found: -3.27

Lookup: Same for `AUAUAGCAAUAUUACGGUCG`
Found: -1.44

Lookup: Same for `UCAAAGCAAUAUUACGAUAU`
Found: -3.62

Lookup: Same for `UCCCAGCAAUAUUACGAGAA`
Found: -1.87

Lookup: Same for `UACCAGCAAUAUUACGCUCG`
Found: -0.415

Lookup: Same for `AGGCAGCAAUAUUACGAGCA`
Found: -1.96

Lookup: Same for `UACCAGCAAUAUUACGUCCA`
Found: -0.321

Lookup: Same for `CGAGAGCAAUAUUACGUGGC`
Found: -4.31

Lookup: Same for `AUACAGCAAUAUUACGAGAG`
Found: -3.39

Lookup: Same for `ACAGAGCAAUAUUACGUGAU`
Found: -2.97

Lookup: Same for `UAGCAGCAAUAUUACGAACA`
Found: -0.591

Lookup: Same for `GCUCAGCAAUAUUACGCUCC`
Found: -1.05

Lookup: Same for `AGCUAGCAAUAUUACGAAUU`
Found: -1.74

Lookup: Same for `AACGAGCAAUAUUACGCGGU`
Found: -3.29

Lookup: Same for `UAUAAGCAAUAUUACGGCAU`
Found: -0.623

Lookup: Same for `GUUAAGCAAUAUUACGGUCU`
Found: -2.3

Lookup: Same for `GAGAAGCAAUAUUACGUUAU`
Found: -3.33

Lookup: Same for `UUCGAGCAAUAUUACGCUAG`
Found: -2.82

Lookup: Same for `AAUUAGCAAUAUUACGCCCC`
Found: -0.573

Lookup: Same for `GCAAAGCAAUAUUACGUGAA`
Found: -0.989

Lookup: Same for `UCACAGCAAUAUUACGAACU`
Found: -3.39

Lookup: Same for `UGACAGCAAUAUUACGCACA`
Found: 0.341

Lookup: Same for `CAUGAGCAAUAUUACGGUCU`
Found: -3.11

Lookup: Same for `CACUAGCAAUAUUACGUUAA`
Found: -2.77

Lookup: Same for `CGGUAGCAAUAUUACGCUAC`
Found: -2.96

Lookup: Same for `UGUCAGCAAUAUUACGCCAU`
Found: -1.79

Lookup: Same for `GUCAAGCAAUAUUACGCACA`
Found: -1.21

Lookup: Same for `UGGGAGCAAUAUUACGGAUU`
Found: -4.21

Lookup: Same for `UUCCAGCAAUAUUACGACGC`
Found: -3.25

Lookup: Same for `AAAUAGCAAUAUUACGCUCC`
Found: -1.48

Lookup: Same for `AAUAAGCAAUAUUACGGCCU`
Found: -0.0966

Lookup: Same for `AUCGAGCAAUAUUACGAGAG`
Found: -3.84

Lookup: Same for `UGUCAGCAAUAUUACGAAAG`
Found: -1.72

Lookup: Same for `UGACAGCAAUAUUACGCUUC`
Found: -3.56

Lookup: Same for `CGCUAGCAAUAUUACGCUUG`
Found: -3.3

Lookup: Same for `UGAAAGCAAUAUUACGUUCG`
Found: -1.51

Lookup: Same for `CCUCAGCAAUAUUACGCGUU`
Found: -3.88

Lookup: Same for `GUGCAGCAAUAUUACGUAUU`
Found: -1.7

Lookup: Same for `GACAAGCAAUAUUACGGGAC`
Found: -2.13

Lookup: Same for `GUACAGCAAUAUUACGAAGA`
Found: -2.52

Lookup: Same for `GGGGAGCAAUAUUACGGUUA`
Found: -1.34

Lookup: Same for `UUAAAGCAAUAUUACGGCCU`
Found: -0.459

Lookup: Same for `CCAAAGCAAUAUUACGAGUU`
Found: -4.72

Lookup: Same for `CAACAGCAAUAUUACGAAUA`
Found: -3.74

Lookup: Same for `UUUCAGCAAUAUUACGAAUU`
Found: -1.67

Lookup: Same for `UUAAAGCAAUAUUACGAAGU`
Found: -3.67

Lookup: Same for `UUAAAGCAAUAUUACGGAAG`
Found: -1.67

Lookup: Same for `AUAGAGCAAUAUUACGUGGG`
Found: -3.77

Lookup: Same for `ACUGAGCAAUAUUACGGUAG`
Found: -3.12

Lookup: Same for `AAGCAGCAAUAUUACGACCA`
Found: -0.635

Lookup: Same for `ACGCAGCAAUAUUACGAAAG`
Found: -3.33

Lookup: Same for `UACUAGCAAUAUUACGAGGU`
Found: -3.47

Lookup: Same for `GAACAGCAAUAUUACGUAUA`
Found: -0.835

Lookup: Same for `UGGGAGCAAUAUUACGAAGA`
Found: -2.99

Lookup: Same for `CGUAAGCAAUAUUACGUAUA`
Found: -2.48

Lookup: Same for `AAUUAGCAAUAUUACGCACC`
Found: -0.701

Lookup: Same for `AGGUAGCAAUAUUACGCACU`
Found: -1.32

Lookup: Same for `UGCAAGCAAUAUUACGGUCU`
Found: -0.647

Lookup: Same for `GGGCAGCAAUAUUACGAAGU`
Found: -1.95

Lookup: Same for `UAGUAGCAAUAUUACGUUUC`
Found: -1.16

Lookup: Same for `UUGUAGCAAUAUUACGUUCG`
Found: -0.926

Lookup: Same for `AGGUAGCAAUAUUACGUCAA`
Found: -2.28

Lookup: Same for `ACAUAGCAAUAUUACGGAAC`
Found: -3.66

Lookup: Same for `UCAAAGCAAUAUUACGCUUA`
Found: -2.87
